# target or test system: EsaR (Pantoea stewartii subsp. stewartii)
# Construct: expressed in transfected cells; host or cells: E. coli JLD271 (K12 ΔsdiA), arabinose-induced pJN105-esaR
# Sequence (P54293 whole entry): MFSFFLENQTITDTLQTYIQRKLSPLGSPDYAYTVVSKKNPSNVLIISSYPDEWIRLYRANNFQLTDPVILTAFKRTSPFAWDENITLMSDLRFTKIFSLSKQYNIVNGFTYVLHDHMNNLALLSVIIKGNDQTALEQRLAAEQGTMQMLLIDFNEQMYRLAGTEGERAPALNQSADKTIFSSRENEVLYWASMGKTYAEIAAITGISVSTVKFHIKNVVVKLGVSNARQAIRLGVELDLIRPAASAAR
# assay: cell-based
# experimental conditions: 100 μM; E. coli EsaR reporter
reported endpoint: EsaR agonism at 100 μM (bound stated in text)

>>> readout_value("O=C1OCC[C@H]1NS(=O)(=O)c1ccc(Cl)c(Cl)c1")
"less than 50%"
>>> readout_value("O=C1OCC[C@@H]1NS(=O)(=O)Cc1cccc(Cl)c1")
"≤ 50%"
>>> readout_value("Cc1ccc(CS(=O)(=O)N[C@H]2CCOC2=O)cc1")
"≤ 50%"
>>> readout_value("O=C(N[C@H]1CCOC1=O)c1ccc(Cl)c(Cl)c1")
"less than 50%"
>>> readout_value("O=C1OCC[C@@H]1NS(=O)(=O)Cc1cccc(Br)c1")
"≤ 50%"
